Values were extracted from patent US20230174596A1.

Each entry below carries its reported S/N.
tgt: T1, hVEGF-A (8-109) (human, UniProt P15692 214-315)
T1 construct: residue numbers count on mature VEGF-A; dimer
T1 sequence (looked up): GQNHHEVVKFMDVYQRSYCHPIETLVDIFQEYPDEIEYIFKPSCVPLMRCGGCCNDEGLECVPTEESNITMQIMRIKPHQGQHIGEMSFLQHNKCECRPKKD
method-summary: spot phage ELISA

Examples from the recorded data:
GCNIMLPFWGCGKELNCLAGCVCQYYQSCG (designed binder) [VEGF_CKP9.54.69] :: 21.7
GCDLMQPLWGCKQDSDCLAGCVCHWYQSCG (designed binder) [VEGF_CKP9.L1.76] :: 17.4

Record summary for GCNIMLPFWGCGQSFECLAGCVCQYYQSCG (designed binder) [VEGF_CKP9.54.1] : reported S/N = 29.9

// recorded S/N for GCNIMLPFWGCGPDLQCLAGCVCQYYQSCG (designed binder) [VEGF_CKP9.54.59] : 35.4
